MEASUREMENT_KIND: logP

// worked examples, logP included
CCNc1nc(NCC(C)C)nc(SC(F)F)n1 | 4.3
O=C(NP(=O)(N1CC1)N1CC1)c1ccccc1Br | 1.08
CCOC(=O)C(=Cc1cccc(OCC)c1)C(C)=O | 2.71
O=C(COc1ccccc1)N1CCOCC1 | 0.74
N#CCCl | 0.45

// lookup logP for CNC(=O)Oc1ccccc1Br 1.77

// lookup logP for COc1cc2c(cc1OC)[C@@]13CCN4CC5=CCO[C@H]6CC(=O)N2[C@H]1[C@H]6[C@H]5C[C@H]43 0.98

// lookup logP for O=C(C=Cc1ccco1)c1ccco1 2.34

// lookup logP for CCCC[Si](C)(C)C 4.2

// lookup logP for CC1=C(C(=O)Nc2ccccc2)SCCO1 2.14

// lookup logP for Cc1cccc(C)n1 1.68

// lookup logP for CNCc1cccnc1 0.39

// lookup logP for C=CCNCC=C 1.11

// lookup logP for NC(=O)c1ncn2c(=O)n(CCCl)nnc12 -0.47

// lookup logP for ClCBr 1.41

// lookup logP for O=[N+]([O-])C=Cc1cccs1 1.96

// lookup logP for C1=Cc2ccccc2C1 2.92
